B1: TPR t1 (parent)
chain: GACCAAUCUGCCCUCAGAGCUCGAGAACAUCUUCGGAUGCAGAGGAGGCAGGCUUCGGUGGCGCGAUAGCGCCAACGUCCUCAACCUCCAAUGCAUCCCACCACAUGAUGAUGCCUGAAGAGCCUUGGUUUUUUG

- Variants of: B1
- experiment-summary: polymerase ribozyme fitness, log enrichment relative to wild type (log ratio); higher = more active; in vitro selection for triplet polymerase activity
Each entry below carries its reported polymerase ribozyme fitness (log ratio).
Lab note: record just the number, no unit beside it.

GACCAAUCUGCCCUCAGAGUUCGAGAACAUCUUCGGAAGCAGAGGAGGCUGGCUUCGGUGGCGCGAUAGCACCAACGUCCUCAACCUCCAAUGCAUCCCACCACAUGAUGAUGCCUGAAGAGCCUUGGUUUUUUG [C20U U38A A50U G71A] :: -4.89
GACCAAUCUGCCCUCAGAGCUUGAGAACAUCUUCGGAUGCAUAGGAGGCAGGCUUCGAUGGCGCGAUAGUGCCAACGUCCUCAACCUCCAAUGCAUCCCACCACAUGAUGAUGCCUGAAGAGCCUUGGUUUUUUG [C22U G42U G58A C70U] :: -5.05

Please turn your attention to the following entry.
For reference, reported polymerase ribozyme fitness (log ratio) for GACCAAUCUGCCCUCAGAGAUGGAGAACAUCUUCGGAUGCAGAGGAGGCAGGCUUCGGUGGCGCGAUAGCGCCAACGUCCUCAACCUCCAAUGCAUCCCACCACAUGAUGAUACCUGAAGAGCCUUGGUUUAUUG [C20A C22G G113A U132A] stands at -4.93
